test system: Human immunodeficiency virus 1; assay: Antiviral activity against HIV1 RF in CEM-SS cells by MTS cytoprotection assay; assay type: functional, organism-based; details: Human immunodeficiency virus 1, RF
MEASURE NAME: EC50 (nM)
// units = nM; emit number, no label

>>> val("COC(=O)CCC/C=C(\\c1cccc(C#N)c1)c1cc(C)c(OC)c(C(=O)OC)c1")
460
>>> val("COC(=O)CCC/C=C(/c1cc(C)c2on(C)c(=O)c2c1)c1cc(C)c2oc(=O)n(C)c2c1")
1790
>>> val("COC(=O)CCC/C=C(\\c1cc(C)c(OC)c(C(=O)OC)c1)c1cc(C)c2on(C)c(=O)c2c1")
1100

Now for a further compound.
Exam item: Supply EC50 value. Item: `COC(=O)CCC/C=C(/c1cc(C)c(OC)c(C(=O)OC)c1)c1cc(C)c2oc(=O)n(C)c2c1`
Marked response: 30

###

test: Half life in rat plasma; format: ADME
MEASURE NAME: half-life (min)
// units = min; emit number, no label

Observe how each entry below is paired with its result.
>>> val("COC(=O)CCC/C=C(\\c1cccc(C#N)c1)c1cc(C)c(OC)c(C(=O)OC)c1")
1.32
>>> val("COC(=O)CCCC=C(c1cccc(C#N)c1)c1cc(C)c2oc(=O)n(C)c2c1")
1.18
>>> val("COC(=O)CCC/C=C(\\c1cc(C)c(OC)c(C(=O)OC)c1)c1cc(C)c2on(C)c(=O)c2c1")
1.85

Exam item: Supply half-life value. Item: `COC(=O)CCC/C=C(/c1cc(C)c2on(C)c(=O)c2c1)c1cc(C)c2oc(=O)n(C)c2c1`
Marked response: 0.46

Exam item: Supply half-life value. Item: `COC(=O)c1cc(/C(=C\CCN2CCOC2=O)c2cc(C)c3on(C)c(=O)c3c2)cc(C)c1OC`
Marked response: 22.1

###

EC50 overview
tested on: Human immunodeficiency virus 2; test: Antiviral activity against HIV2 ROD in MT4 cells by MTT assay; assay type: functional, organism-based; conditions: Human immunodeficiency virus 2, ROD

Observe how each entry below is paired with its result.
>>> val("COC(=O)CCC/C=C(\\c1cc(C)c(OC)c(C(=O)OC)c1)c1cc(C)c2on(C)c(=O)c2c1")
"> 27.1 µM"
>>> val("COC(=O)CCC/C=C(/c1ccc(C#N)cc1)c1cc(C)c2oc(=O)n(C)c2c1")
"> 51 µM"
>>> val("COC(=O)CCCC=C(c1cccc(C#N)c1)c1cc(C)c2oc(=O)n(C)c2c1")
"> 54.2 µM"

Exam item: Supply EC50 value. Item: `COC(=O)CCC/C=C(\c1cccc(C#N)c1)c1cc(C)c(OC)c(C(=O)OC)c1`
Marked response: > 10.6 µM

Exam item: Supply EC50 value. Item: `COC(=O)CCC/C=C(/c1cc(C)c2on(C)c(=O)c2c1)c1cc(C)c2oc(=O)n(C)c2c1`
Marked response: > 36.5 µM

Exam item: Supply EC50 value. Item: `COc1noc2c(C)cc(/C(=C\CCN3CCOC3=O)c3cc(C)c4on(C)c(=O)c4c3)cc12`
Marked response: > 1.12 µM

###

pIC50 overview
molecular target: Human immunodeficiency virus type 1 reverse transcriptase (Human immunodeficiency virus 1, UniProt Q72547); experiment: Inhibition of recombinant HIV1 reverse transcriptase measured as inhibition of incorporation of [32P]GTP in rCDG primer
To interpret pIC50, take it as minus log10 of a concentration measured in moles per litre.

Observe how each entry below is paired with its result.
>>> val("COC(=O)CCC/C=C(/c1cc(C)c(OC)c(C(=O)OC)c1)c1cc(C)c2oc(=O)n(C)c2c1")
7.70
>>> val("COc1noc2c(C)cc(/C(=C\\CCN3CCOC3=O)c3cc(C)c4on(C)c(=O)c4c3)cc12")
5.12
>>> val("COC(=O)CCC/C=C(\\c1cc(C)c(OC)c(C(=O)OC)c1)c1cc(C)c2on(C)c(=O)c2c1")
5.70
>>> val("COC(=O)CCC/C=C(\\c1cccc(C#N)c1)c1cc(C)c(OC)c(C(=O)OC)c1")
6.27
>>> val("COC(=O)CCC/C=C(/c1ccc(C#N)cc1)c1cc(C)c2oc(=O)n(C)c2c1")
5.92

Exam item: Supply pIC50 value. Item: `COC(=O)CCCC=C(c1cccc(C#N)c1)c1cc(C)c2on(C)c(=O)c2c1`
Marked response: 4.30

Exam item: Supply pIC50 value. Item: `COC(=O)CCCC=C(c1cccc(C#N)c1)c1cc(C)c2oc(=O)n(C)c2c1`
Marked response: 4.58

Exam item: Supply pIC50 value. Item: `COC(=O)c1cc(/C(=C\CCN2CCOC2=O)c2cc(C)c3on(C)c(=O)c3c2)cc(C)c1OC`
Marked response: 5.01

Exam item: Supply pIC50 value. Item: `COC(=O)CCC/C=C(/c1cccc(C#N)c1)c1cc(C)c2oc(=O)n(C)c2c1`
Marked response: 5.55

Exam item: Supply pIC50 value. Item: `COC(=O)CCC/C=C(/c1cc(C)c2on(C)c(=O)c2c1)c1cc(C)c2oc(=O)n(C)c2c1`
Marked response: 4.31
